Entries annotated with measured Inhibition
tested on: L1210; experiment: In vitro inhibition of cell growth (Cytostatic activity) of mouse leukemia L1210 cells (ATCC CCL 219); inhibition @ 10 uM/L; type: functional

Structure As Smiles: CC(=O)OC[C@H]1O[C@@H](n2cnc3c(-c4ccc(Cl)cc4)ncnc32)[C@H](OC(C)=O)[C@@H]1OC(C)=O
Inhibition: <20%
--
Structure As Smiles: CC(=O)OC[C@H]1O[C@@H](n2cnc3c(-c4ccc(C)cc4)ncnc32)[C@H](OC(C)=O)[C@@H]1OC(C)=O
Inhibition: <20%
--
Structure As Smiles: COc1cccc(-c2ncnc3c2ncn3[C@@H]2O[C@H](COC(C)=O)[C@@H](OC(C)=O)[C@H]2OC(C)=O)c1
Inhibition: <20%
--
Structure As Smiles: CC(=O)OC[C@H]1O[C@@H](n2cnc3c(-c4ccc(F)c(F)c4)ncnc32)[C@H](OC(C)=O)[C@@H]1OC(C)=O
Inhibition: <20%
